Emax by entry:
Target: M1 muscarinic receptor (Homo sapiens)
Construct: expressed in transfected cells; host or cells: CHO (M1-CHO)
Sequence (P11229 1-460): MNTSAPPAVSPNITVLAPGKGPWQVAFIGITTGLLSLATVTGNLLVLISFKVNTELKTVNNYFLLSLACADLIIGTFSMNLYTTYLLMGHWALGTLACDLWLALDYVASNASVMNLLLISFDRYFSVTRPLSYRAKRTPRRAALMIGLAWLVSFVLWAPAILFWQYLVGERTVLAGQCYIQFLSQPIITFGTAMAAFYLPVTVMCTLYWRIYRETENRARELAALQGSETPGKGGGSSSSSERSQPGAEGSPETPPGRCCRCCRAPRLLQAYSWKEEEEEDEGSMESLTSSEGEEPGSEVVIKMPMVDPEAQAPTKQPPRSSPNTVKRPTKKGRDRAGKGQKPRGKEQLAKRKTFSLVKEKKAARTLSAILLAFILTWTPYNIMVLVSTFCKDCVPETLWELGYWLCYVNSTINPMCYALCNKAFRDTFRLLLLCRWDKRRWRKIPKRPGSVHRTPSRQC
Test: Functional mobilization of intracellular calcium (FLIPR), M1-CHO cells
Type: cell-based
Experimental Context: 100% efficacy is the maximum response obtained with the Carbachol control

# Molecule, Target, Emax
rows = [
    ("CCOC(=O)N1CCC(N2CCC3(CC2)CN(C(=O)N(C)C)c2ccccc23)CC1", "M1 muscarinic receptor (Homo sapiens)", "25 to 100%"),
    ("COCCOC(=O)N1CCC(N2CCC3(CC2)CN(C(=O)N(C)C)c2ccccc23)CC1", "M1 muscarinic receptor (Homo sapiens)", "25 to 100%"),
    ("CN(C)C(=O)N1CC2(CCN(C[C@@H]3CCN(C(=O)OC4CCOC4)C3)CC2)c2ccccc21 (some centres unmarked)", "M1 muscarinic receptor (Homo sapiens)", "< 25%"),
    ("CCCOC(=O)N1CCCC(N2CCC3(CC2)CN(C(=O)N(C)C)c2ccccc23)CC1 (centres unmarked)", "M1 muscarinic receptor (Homo sapiens)", "25 to 100%"),
    ("CC(=O)N1CCC2(CCN(C3CCN(c4cnc5ccccc5n4)CC3)CC2)c2ccccc21", "M1 muscarinic receptor (Homo sapiens)", "25 to 100%"),
]

Returns the measured Emax for the input molecule. Input: `CN(C)C(=O)N1CC2(CCN(C[C@H]3CCN(c4cnccn4)C3)CC2)c2ccccc21`
25 to 100%

Tell me the measured Emax of `CN(C)C(=O)N1CC2(CCN(C3CCN(c4cncc(-c5ccccc5O)n4)CC3)CC2)c2ccccc21` , please.
25 to 100%

What Emax value was documented for this molecule, CN(C)C(=O)N1CC2(CCN(C[C@H]3CCN(C(=O)OC4CCOC4)C3)CC2)c2ccccc21 (some centres unmarked) ?
< 25%
